test system: PPARa:RXRa (NR concentration 270 nM, RXRa partner concentration 90 nM); experiment: PBM binding z-score (relative to random genomic background probes); higher = stronger binding; sequences stand for … in GC…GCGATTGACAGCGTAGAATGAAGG
READOUT: PBM binding z-score
Answer with a bare number; do not write a unit.

Consider the following illustrative entries.
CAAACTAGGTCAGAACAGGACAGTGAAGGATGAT :: 3.34
AGAATGAGGTTACCAAAGATCAGGAAAACGCTTG :: 3.51
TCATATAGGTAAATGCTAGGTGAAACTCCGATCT :: 1.4
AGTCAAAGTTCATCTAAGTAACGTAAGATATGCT :: 4.76
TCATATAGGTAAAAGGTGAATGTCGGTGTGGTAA :: 5.2

stdin: What reported PBM binding z-score corresponds to "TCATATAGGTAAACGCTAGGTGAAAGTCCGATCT" on PPARa:RXRa (NR concentration 270 nM, RXRa partner concentration 90 nM)?
stdout: 1.7
